# System: biotinylated hu-β-klotho (UniProt Q86Z14 53-996, biotinylated (sites not given))
# Sequence (Q86Z14 53-996): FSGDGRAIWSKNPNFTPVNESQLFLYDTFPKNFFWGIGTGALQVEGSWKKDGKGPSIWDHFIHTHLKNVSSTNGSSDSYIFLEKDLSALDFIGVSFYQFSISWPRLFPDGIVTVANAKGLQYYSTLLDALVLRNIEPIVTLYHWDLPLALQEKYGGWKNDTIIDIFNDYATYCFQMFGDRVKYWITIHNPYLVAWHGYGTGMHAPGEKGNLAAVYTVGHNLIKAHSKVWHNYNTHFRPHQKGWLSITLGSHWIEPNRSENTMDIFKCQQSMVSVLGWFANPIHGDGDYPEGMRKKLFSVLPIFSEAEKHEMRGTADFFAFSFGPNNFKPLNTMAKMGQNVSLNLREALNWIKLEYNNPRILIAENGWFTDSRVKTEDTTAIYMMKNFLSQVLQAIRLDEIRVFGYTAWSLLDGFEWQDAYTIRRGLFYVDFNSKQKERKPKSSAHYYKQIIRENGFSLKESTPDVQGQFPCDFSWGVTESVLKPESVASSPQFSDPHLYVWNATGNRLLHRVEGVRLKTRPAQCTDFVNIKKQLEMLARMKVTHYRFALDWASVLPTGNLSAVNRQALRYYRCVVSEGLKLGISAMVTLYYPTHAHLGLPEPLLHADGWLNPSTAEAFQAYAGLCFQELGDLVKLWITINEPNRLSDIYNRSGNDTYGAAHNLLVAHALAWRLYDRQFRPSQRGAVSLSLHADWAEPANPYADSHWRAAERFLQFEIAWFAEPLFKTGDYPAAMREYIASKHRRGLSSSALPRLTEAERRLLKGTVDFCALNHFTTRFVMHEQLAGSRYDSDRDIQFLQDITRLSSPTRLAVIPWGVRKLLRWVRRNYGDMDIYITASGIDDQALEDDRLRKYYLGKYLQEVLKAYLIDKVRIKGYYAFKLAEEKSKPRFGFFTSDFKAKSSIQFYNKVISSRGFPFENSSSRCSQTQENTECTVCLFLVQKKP
# Experiment notes: Octet BLI
pKd: −log10 of the molar value.
# key: entry, value: pKd
Endpoint name: pKd

>  <Binder>
3B4 (antibody, V domains shown) VH: QVQLVQSGAEVKKPGASVKVSCKASGYTFTAYYMHWVRQAPGQGLEWMGWINPNSGGTNSAQKFQGRVTMTRDTSIRTAYMELSWLRSDDTAVYYCARDATSGWFDIWGQGTPVTVSS VL: DIVMTQTPLSSPVTLGQPASISCRSSQSLVHYDGNTYLSWLQQRPGQPPRLLIYKISNRFSGVPDRFSGSGAGTDFTLKISRVEAEDVGIYYCMQALEFPWTFGQGTKVEIKR

>  <Value measured>
8.22

$$$$
>  <Binder>
1B5 (antibody, V domains shown) VH: QVQLVQSGAEVKKPGASVKVSCKASGYTFTAYYMHWVRQAPGQGLEWMGWINPNSGGTNSAQKFQGRVTMTRDTSIRTAYMELSWLRSDDTAVYYCARDATSGWFDFWGQGTPVTVSS VL: DIVMTQTPLTSPVTLGQPASISCRSSQSLVHYDGNTYLSWLQQRPGQPPRLLIYKISNRFSGVPDRFSGSGAGTDFTLKISRVEAEDVGIYYCMQALEFPWTFGQGTKVEIKR

>  <Value measured>
9.24

$$$$
>  <Binder>
8F9 (antibody, V domains shown) VH: QVQLVESGGGVVQPGRSLRLSCAASGFTFSSYGMHWVRQAPGKGLEWVAVIWYDGRNKYHADSVKGRFTISRDNSKNTLYLQMNSLRAEDTAVYYCARDHPVAGTSFDYWGQGTLVTVSS VL: QSVLTQPPSVSAAPGQKVTISCSGSSSNIGNNYVSWYQQLPGTAPKLLIYDNNKRPSGIPDRFSGSKSGTSATLGITGLQTGDEADYYCGTWDSSLSAVVFGGGTKLTVLG

>  <Value measured>
9.37

$$$$

Cited source for all entries: patent US20130129725A1
